# measured-target: Cruzipain (Trypanosoma cruzi) (UniProt P25779)
# Sequence (P25779 123-467 limits assumed): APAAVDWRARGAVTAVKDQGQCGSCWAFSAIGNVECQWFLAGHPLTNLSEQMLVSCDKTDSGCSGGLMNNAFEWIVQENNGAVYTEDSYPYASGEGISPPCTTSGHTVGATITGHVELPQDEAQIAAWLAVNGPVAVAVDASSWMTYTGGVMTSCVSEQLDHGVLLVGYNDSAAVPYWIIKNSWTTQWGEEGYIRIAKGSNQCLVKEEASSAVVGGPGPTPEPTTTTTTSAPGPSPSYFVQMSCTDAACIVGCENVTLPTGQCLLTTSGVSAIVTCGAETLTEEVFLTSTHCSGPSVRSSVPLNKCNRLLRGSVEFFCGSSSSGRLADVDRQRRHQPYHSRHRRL
# protocol-details: Confirmation qHTS Assay for Inhibitors of Cruzain; note: potency is the fitted concentration of half-maximal effect; nearly all actives have a fitted effect of over 40% in size
# conditions: purified cruzain, Z-FR-AMC fluorescence, 0.01% Triton
Records with an inconclusive call do not appear. Active and inactive are the calls of the source. Calls come from the whole dose curve; as a rule, active = well fitted inhibition curve with a large enough effect; inconclusive = small, poorly fitted or top-dose-only effect; inactive = no such curve, though single readings can be large or run the other way.
Below, each of the compounds is paired with its reported Potency value.

These solved cases illustrate the format of a correct answer.
{"columns": ["compound", "Potency"],
 "data": [
  ["CCOc1ccc(C(=O)COC(=O)CNC(=O)C2CCCCC2)cc1", "3.16 µM (active)"],
  ["Cc1ccc(OCCCCn2c(CCNC(=O)C3CCCCC3)nc3ccccc32)cc1", "1.12 µM (active)"],
  ["CCCNc1nc(C#N)nc(Nc2ccccc2)n1", "0.794 µM (active)"],
  ["O=C(CNC(=O)C1CCCCC1)OCC(=O)c1ccc(Br)cc1", "2.24 µM (active)"],
  ["O=C(CNC(=O)c1cccc(Cl)c1)OC(C(=O)Nc1cc(C(F)(F)F)ccc1Cl)c1ccccc1 (centres undefined)", "12.6 µM (active)"]
]}

Challenge: Would you kindly share the measured Potency for "Cc1cc(OCCCn2c(CCNC(=O)C3CCCCC3)nc3ccccc32)ccc1Cl" ?
Response given: 1.12 µM (active)

Challenge: Would you kindly share the measured Potency for "CC(C)Nc1nc(C#N)nc(Nc2ccccc2)n1" ?
Response given: 0.891 µM (active)

Challenge: Would you kindly share the measured Potency for "COC(=O)Sc1nc(N2CCOCC2)c2c(c1C#N)CC(C)(C)OC2" ?
Response given: 14.1 µM (active)

Challenge: Would you kindly share the measured Potency for "COc1ccc(/C=C/C(=O)Nc2ccc(-n3nncc3-c3ccc(Br)cc3)cc2)cc1OC" ?
Response given: 12.6 µM (active)
